Every entry's value here was drawn from ChEMBL document CHEMBL1144425.

So I've got a bunch of molecules here, and I need their log10(Ki) values.
# TARGET UNDER TEST: Vasopressin V1a receptor (Homo sapiens)
# METHOD NOTES: Binding affinity against human vasopressin V1a receptor expressed in CHO cells
# Type: cell-based
# APPLIED CONDITIONS: cho
Could you please treat all values as log10 of Ki in nM?

Field: example entries. Status: answers known.
1) N=C(N)NCCC[C@H](NC(=O)[C@@H]1CCCN1C(=O)[C@H](CCCNC(=N)N)NC(=O)[C@H](CC(N)=O)NC(=O)[C@H](CCC(N)=O)NC(=O)[C@H](Cc1ccccc1)NC(=O)[C@@H](N)Cc1ccc(C(=O)c2ccccc2)cc1)C(=O)N[C@@H](Cc1ccc(O)c(I)c1)C(N)=O :: 2.17
2) COc1ccc(C[C@@H](NC(=O)C(N)Cc2ccc(C(=O)c3ccccc3)cc2)C(=O)N[C@@H](Cc2ccccc2)C(=O)N[C@@H](CCC(N)=O)C(=O)N[C@@H](CC(N)=O)C(=O)N[C@@H](CCCNC(=N)N)C(=O)N2CCC[C@H]2C(=O)N[C@@H](CCCNC(=N)N)C(=O)N[C@@H](Cc2ccc(O)c(I)c2)C(N)=O)cc1 (stereo not given in full) :: 2.66
3) CC(=O)N[C@@H](Cc1ccc(C(=O)c2ccccc2)cc1)C(=O)N[C@@H](Cc1ccccc1)C(=O)N[C@@H](CCC(N)=O)C(=O)N[C@@H](CC(N)=O)C(=O)N[C@@H](CCCNC(=N)N)C(=O)N1CCC[C@H]1C(=O)N[C@@H](CCCNC(=N)N)C(=O)N[C@@H](Cc1ccc(O)c(I)c1)C(N)=O :: 3.17
4) NC(=O)CC[C@H](NC(=O)[C@H](Cc1ccccc1)NC(=O)[C@H](N)Cc1ccc(C(=O)c2ccccc2)cc1)C(=O)N[C@@H](CC(N)=O)C(=O)N[C@@H](CCCN=C(N)N)C(=O)N1CCC[C@H]1C(=O)N[C@@H](CCCN=C(N)N)C(=O)N[C@@H](Cc1ccc(O)c(I)c1)C(N)=O :: 1.30

Prompt line: Quick one: log10(Ki) for COc1ccc(C[C@@H](NC(=O)CNC(=O)c2ccc(C(=O)c3ccccc3)cc2)C(=O)N[C@@H](Cc2ccccc2)C(=O)N[C@@H](CCC(N)=O)C(=O)N[C@@H](CC(N)=O)C(=O)N[C@@H](CCCCN)C(=O)N2CCC[C@H]2C(=O)N[C@@H](CCCNC(=N)N)C(=O)N[C@@H](Cc2ccc(O)c(I)c2)C(N)=O)cc1 ?
Response line: 2.06

====

# TARGET UNDER TEST: Vasopressin V1a receptor (Homo sapiens, UniProt P37288)
# Sequence (P37288 whole entry): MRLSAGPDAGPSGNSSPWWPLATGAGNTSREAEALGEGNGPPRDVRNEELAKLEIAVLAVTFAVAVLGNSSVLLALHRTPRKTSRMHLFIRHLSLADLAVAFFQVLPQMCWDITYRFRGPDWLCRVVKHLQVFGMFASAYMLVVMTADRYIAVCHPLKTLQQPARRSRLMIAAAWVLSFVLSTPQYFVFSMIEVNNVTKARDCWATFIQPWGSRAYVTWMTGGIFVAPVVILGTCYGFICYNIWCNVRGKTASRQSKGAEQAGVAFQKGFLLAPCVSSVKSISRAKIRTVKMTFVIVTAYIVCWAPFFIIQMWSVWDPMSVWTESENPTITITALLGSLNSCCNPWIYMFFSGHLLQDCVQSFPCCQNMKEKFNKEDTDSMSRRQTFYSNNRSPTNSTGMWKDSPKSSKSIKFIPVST
# METHOD NOTES: Binding affinity against human vasopressin V1a receptor expressed in CHO cells
# Type: cell-based
# APPLIED CONDITIONS: cho
READOUT LABEL: Ki (nM)
One number for each entry, in nM.

Prompt line: Quick one: Ki for CC(=O)N[C@H](Cc1ccc(C(=O)c2ccccc2)cc1)C(=O)N[C@@H](Cc1ccccc1)C(=O)N[C@@H](CCC(N)=O)C(=O)N[C@@H](CC(N)=O)C(=O)N[C@@H](CCCNC(=N)N)C(=O)N1CCC[C@H]1C(=O)N[C@@H](CCCNC(=N)N)C(=O)N[C@@H](Cc1ccc(O)c(I)c1)C(N)=O ?
Response line: 24
